- TARGET: human phosphodiesterase-3A (Homo sapiens (Human), UniProt Q14432)
- Sequence (Q14432 whole entry): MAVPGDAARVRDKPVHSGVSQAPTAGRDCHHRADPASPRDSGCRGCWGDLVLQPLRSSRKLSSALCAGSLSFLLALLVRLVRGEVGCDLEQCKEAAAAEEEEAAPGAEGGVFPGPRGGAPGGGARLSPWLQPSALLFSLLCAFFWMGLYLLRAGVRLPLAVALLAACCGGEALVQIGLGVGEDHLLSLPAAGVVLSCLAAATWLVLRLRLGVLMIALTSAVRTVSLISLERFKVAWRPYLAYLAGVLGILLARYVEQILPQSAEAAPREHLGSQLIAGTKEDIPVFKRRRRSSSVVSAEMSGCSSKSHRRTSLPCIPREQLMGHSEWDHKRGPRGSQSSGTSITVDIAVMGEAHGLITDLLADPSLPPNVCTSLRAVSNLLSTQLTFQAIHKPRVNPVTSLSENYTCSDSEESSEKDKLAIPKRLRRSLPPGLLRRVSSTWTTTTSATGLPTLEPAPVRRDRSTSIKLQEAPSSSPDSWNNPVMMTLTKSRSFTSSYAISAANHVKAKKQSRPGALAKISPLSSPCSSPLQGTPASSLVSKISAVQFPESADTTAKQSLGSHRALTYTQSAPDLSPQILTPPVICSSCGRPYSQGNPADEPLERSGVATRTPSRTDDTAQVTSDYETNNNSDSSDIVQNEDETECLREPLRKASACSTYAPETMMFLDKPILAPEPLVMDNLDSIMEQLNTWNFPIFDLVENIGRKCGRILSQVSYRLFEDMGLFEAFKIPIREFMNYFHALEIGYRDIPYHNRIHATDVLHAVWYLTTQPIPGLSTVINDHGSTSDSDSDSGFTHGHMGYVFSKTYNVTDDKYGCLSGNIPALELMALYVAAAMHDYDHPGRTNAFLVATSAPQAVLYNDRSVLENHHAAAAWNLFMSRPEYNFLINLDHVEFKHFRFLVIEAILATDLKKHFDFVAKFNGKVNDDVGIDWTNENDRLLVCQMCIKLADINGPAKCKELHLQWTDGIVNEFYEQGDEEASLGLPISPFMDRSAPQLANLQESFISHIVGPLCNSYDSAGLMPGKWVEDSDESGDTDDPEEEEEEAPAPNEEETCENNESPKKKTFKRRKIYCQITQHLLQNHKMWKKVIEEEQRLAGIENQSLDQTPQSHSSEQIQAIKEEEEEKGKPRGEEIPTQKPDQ
- ASSAY_EXPLANATION: PDE3 Assay
- Type: biochemical
- EXPERIMENTAL_PARAMETERS: human recombinant enzyme expressed in Sf9 cells; formation of 5'AMP from cAMP
MEASUREMENT_TYPE: IC50 (µM)

| MOLECULE | IC50 (µM) |
| --- | --- |
| N#Cc1ccc(COc2cccc(C3=CCN(Cc4nc5ccc(C(=O)O)cc5n4C[C@@H]4CCO4)CC3)n2)c(F)c1 [Ref Comp A, reference compound] | 4 |

P. Cc1cc(Cc2nc3ccc(C(=O)O)cc3n2C[C@@H]2CCO2)c(F)cc1-c1cccc(OCc2ccc(C#N)cc2F)n1 [Ref Comp D, reference compound]
Q. N#Cc1ccc(COc2cccc(C3CCN(Cc4nc5ccc(C(=O)O)cc5n4C[C@H]4CCO4)CC3)n2)c(F)c1 [Ref Comp B, reference compound]
Identify the entry with the smaller IC50: P or Q . # answer = label of selected item
P
(P: 5 µM, Q: 11 µM)
